Taken from ChEMBL document CHEMBL2092589.

Assay: HARVARD: Cytotoxicity in HepG2 cell line
Details: human, hepg2
Structures can show the parent of a compound that is named as a salt.
MEASURE_NAME: IC50

According to the records, this compound CN1CCC[C@@H]1CCO[C@](C)(c1ccccc1)c1ccc(Cl)cc1 [CLEMASTINE FUMARATE] displays IC50 of > 50 µM

----------
Tested on: HepG2
Assay: HARVARD: Cytotoxicity in HepG2 cell line
Conditions: human, HepG2 cells
MEASURE_NAME: IC50 (µM)
Give bare numbers, in µM.

According to the records, this sequence AURANOFIN displays IC50 of 5.6

----------
Assay: HARVARD: Cytotoxicity in HepG2 cell line
Conditions: human, HepG2 cells
pIC50: −log10 of the molar value.
MEASURE_NAME: pIC50

# annotated cases, reported pIC50 shown
[
  {
    "COMPOUND": "CCc1nc(N)nc(N)c1-c1ccc(Cl)cc1",
    "pIC50": "< 5.00"
  },
  {
    "COMPOUND": "Nc1nc(Nc2ccc(S(N)(=O)=O)cc2)nn1C(=S)Nc1c(F)cccc1F",
    "pIC50": "< 4.30"
  },
  {
    "COMPOUND": "CC[C@@H](C(=O)[C@@H](C)[C@@H](O)[C@H](C)CCc1ccc(C)c(O)c1C(=O)O)[C@H]1O[C@](CC)([C@H]2CC[C@](O)(CC)[C@H](C)O2)C[C@@H]1C [LASALOCID A SODIUM]",
    "pIC50": "< 4.00"
  },
  {
    "COMPOUND": "O=C1C(O)=C([C@H]2CC[C@H](c3ccc(Cl)cc3)CC2)C(=O)c2ccccc21",
    "pIC50": "< 5.00"
  }
]

Hi, could you look up pIC50 for each item in my list?
1. C[C@@H]1C[C@@H]([C@H](O)CC2CC(=O)NC(=O)C2)C(=O)[C@@H](C)C1 [CYCLOHEXIMIDE]
2. COc1ccc2nc([S@@+]([O-])Cc3ncc(C)c(OC)c3C)[nH]c2c1

Data returned:
["< 4.00", "< 5.00"]
